# System: tet operator sequence
# protocolText: β-galactosidase activity of a tetracycline-regulated promoter in transformed E. coli with revTetR, in the presence and absence of anhydrotetracycline (atc)
# Format: cell-based, Escherichia coli
# experimentalConditions: RevTetR isolate cultured in the absence of anhydrotetracycline (ATC)
readoutType: β-Galactosidase Activity, Cultured Without ATC

{"columns": ["molecule", "observed"],
 "data": [
  ["TetRrev96/99-12: revTetR(BD) G96H V99Q (protein, Modified tetracycline repressor, revTetR(BD) G96H V99Q) MSRLDKSKVINSALELLNEVGIEGLTTRKLAQKLGVEQPTLYWHVKNKRALLDALAVEILARHHDYSLPAAGESWQSFLRNNAMSFRRALLRYRDHAKQHLGTRPDEKQYDTVETQLRFMTENGFSLRDGLYAISAVSHFTLGAVLEQQEHTAALTDRPAAPDENLPPLLREALQIMDSDDGEQAFLHGLESLIRGFEVQLTALLQIV", 102.406]
]}
